The values you see were collected from paper PMC7928716.

Quick note: these are pKi numbers for system: UniProtKB Q9GZQ8
pKi: −log10 of the molar value. Square brackets hold non-standard residues; d marks the D form. Peptide text beside a SMILES is read from it. pY = N[C@@H](Cc1ccc(OP(=O)(O)O)cc1)C(=O)O; pT = C[C@@H](OP(=O)(O)O)[C@H](N)C(=O)O; pS = N[C@@H](COP(=O)(O)O)C(=O)O

pKi for CC[C@H](C)[C@H](NC(=O)[C@H](CC(N)=O)NC(=O)[C@@H](NC(=O)[C@H](Cc1ccccc1)NC(=O)[C@@H](NC(=O)[C@H](CO)NC(=O)[C@@H](NC(=O)[C@H](C)NC(=O)[C@H](CCC(=O)O)NC(=O)[C@H](CCCCN)NC(C)=O)[C@@H](C)O)[C@@H](C)O)[C@@H](C)O)C(=O)N[C@H](C(=O)N[C@@H](Cc1ccc(OP(=O)(O)O)cc1)C(=O)N[C@@H](CCCNC(=N)N)C(=O)NCC(N)=O)[C@@H](C)O [pTyr^785] (Ac-KEATSTFTNIT[pY]RG-NH2) is 4.09

pKi for CC[C@H](C)[C@H](NC(=O)[C@H](CC(N)=O)NC(=O)[C@@H](NC(=O)[C@H](Cc1ccccc1)NC(=O)[C@@H](NC(=O)[C@H](CO)NC(=O)[C@@H](NC(=O)[C@H](C)NC(=O)[C@H](CCC(=O)O)NC(=O)[C@H](CCCCN)NC(C)=O)[C@@H](C)O)[C@@H](C)OP(=O)(O)O)[C@@H](C)O)C(=O)N[C@H](C(=O)N[C@@H](Cc1ccc(O)cc1)C(=O)N[C@@H](CCCNC(=N)N)C(=O)NCC(N)=O)[C@@H](C)O [pThr^779] (Ac-KEATS[pT]FTNITYRG-NH2) is < 4.00

pKi for CC[C@H](C)[C@H](NC(=O)[C@H](CC(N)=O)NC(=O)[C@@H](NC(=O)[C@H](Cc1ccccc1)NC(=O)[C@@H](NC(=O)[C@H](COP(=O)(O)O)NC(=O)[C@@H](NC(=O)[C@H](C)NC(=O)[C@H](CCC(=O)O)NC(=O)[C@H](CCCCN)NC(C)=O)[C@@H](C)O)[C@@H](C)O)[C@@H](C)O)C(=O)N[C@H](C(=O)N[C@@H](Cc1ccc(O)cc1)C(=O)N[C@@H](CCCNC(=N)N)C(=O)NCC(N)=O)[C@@H](C)O [pSer^778] (Ac-KEAT[pS]TFTNITYRG-NH2) is < 4.00

---

Square brackets hold non-standard residues; d marks the D form. Peptide text beside a SMILES is read from it. pY = N[C@@H](Cc1ccc(OP(=O)(O)O)cc1)C(=O)O; pT = C[C@@H](OP(=O)(O)O)[C@H](N)C(=O)O
observed property: Ki (µM)
Respond numerically; units are µM and should not be typed.

Tested on MAP1LC3B ATG8 (Homo sapiens), the item CC[C@H](C)[C@H](NC(=O)[C@H](CC(N)=O)NC(=O)[C@@H](NC(=O)[C@H](Cc1ccccc1)NC(=O)[C@@H](NC(=O)[C@H](CO)NC(=O)[C@@H](NC(=O)[C@H](C)NC(=O)[C@H](CCC(=O)O)NC(=O)[C@H](CCCCN)NC(C)=O)[C@@H](C)O)[C@@H](C)OP(=O)(O)O)[C@@H](C)O)C(=O)N[C@H](C(=O)N[C@@H](Cc1ccc(OP(=O)(O)O)cc1)C(=O)N[C@@H](CCCNC(=N)N)C(=O)NCC(N)=O)[C@@H](C)O [pThr^779/pTyr^785] (Ac-KEATS[pT]FTNIT[pY]RG-NH2) showed Ki equal to 15

---

Square brackets hold non-standard residues; d marks the D form. Peptide text beside a SMILES is read from it. pY = N[C@@H](Cc1ccc(OP(=O)(O)O)cc1)C(=O)O; pT = C[C@@H](OP(=O)(O)O)[C@H](N)C(=O)O; pS = N[C@@H](COP(=O)(O)O)C(=O)O
observed property: pKi
Scale explanation: pKi corresponds to minus log10 of a concentration expressed in moles per litre.

Tested on MAP1LC3C ATG8 (Homo sapiens), the item CC[C@H](C)[C@H](NC(=O)[C@H](CC(N)=O)NC(=O)[C@@H](NC(=O)[C@H](Cc1ccccc1)NC(=O)[C@@H](NC(=O)[C@H](COP(=O)(O)O)NC(=O)[C@@H](NC(=O)[C@H](C)NC(=O)[C@H](CCC(=O)O)NC(=O)[C@H](CCCCN)NC(C)=O)[C@@H](C)O)[C@@H](C)O)[C@@H](C)O)C(=O)N[C@H](C(=O)N[C@@H](Cc1ccc(O)cc1)C(=O)N[C@@H](CCCNC(=N)N)C(=O)NCC(N)=O)[C@@H](C)O [pSer^778] (Ac-KEAT[pS]TFTNITYRG-NH2) showed pKi equal to 4.79

Tested on MAP1LC3C ATG8 (Homo sapiens), the item CC[C@H](C)[C@H](NC(=O)[C@H](CC(N)=O)NC(=O)[C@@H](NC(=O)[C@H](Cc1ccccc1)NC(=O)[C@@H](NC(=O)[C@H](CO)NC(=O)[C@@H](NC(=O)[C@H](C)NC(=O)[C@H](CCC(=O)O)NC(=O)[C@H](CCCCN)NC(C)=O)[C@@H](C)O)[C@@H](C)OP(=O)(O)O)[C@@H](C)O)C(=O)N[C@H](C(=O)N[C@@H](Cc1ccc(OP(=O)(O)O)cc1)C(=O)N[C@@H](CCCNC(=N)N)C(=O)NCC(N)=O)[C@@H](C)O [pThr^779/pTyr^785] (Ac-KEATS[pT]FTNIT[pY]RG-NH2) showed pKi equal to 5.10

---

Quick note: these are pKi numbers for system: MAP1LC3C ATG8 (Homo sapiens, UniProt Q9BXW4)
Sequence (Q9BXW4 2-125): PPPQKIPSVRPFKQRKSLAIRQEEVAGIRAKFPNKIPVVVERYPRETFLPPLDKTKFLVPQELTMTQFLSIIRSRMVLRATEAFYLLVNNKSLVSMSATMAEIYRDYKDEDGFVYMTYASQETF
Square brackets hold non-standard residues; d marks the D form. Peptide text beside a SMILES is read from it. pY = N[C@@H](Cc1ccc(OP(=O)(O)O)cc1)C(=O)O; pT = C[C@@H](OP(=O)(O)O)[C@H](N)C(=O)O
Scale explanation: pKi corresponds to minus log10 of a concentration expressed in moles per litre.

pKi for CC[C@H](C)[C@H](NC(=O)[C@H](CC(N)=O)NC(=O)[C@@H](NC(=O)[C@H](Cc1ccccc1)NC(=O)[C@@H](NC(=O)[C@H](CO)NC(=O)[C@@H](NC(=O)[C@H](C)NC(=O)[C@H](CCC(=O)O)NC(=O)[C@H](CCCCN)NC(C)=O)[C@@H](C)OP(=O)(O)O)[C@@H](C)O)[C@@H](C)O)C(=O)N[C@H](C(=O)N[C@@H](Cc1ccc(O)cc1)C(=O)N[C@@H](CCCNC(=N)N)C(=O)NCC(N)=O)[C@@H](C)O [pThr^777] (Ac-KEA[pT]STFTNITYRG-NH2) is 4.14

pKi for CC[C@H](C)[C@H](NC(=O)[C@H](CC(N)=O)NC(=O)[C@@H](NC(=O)[C@H](Cc1ccccc1)NC(=O)[C@@H](NC(=O)[C@H](CO)NC(=O)[C@@H](NC(=O)[C@H](C)NC(=O)[C@H](CCC(=O)O)NC(=O)[C@H](CCCCN)NC(C)=O)[C@@H](C)O)[C@@H](C)OP(=O)(O)O)[C@@H](C)O)C(=O)N[C@H](C(=O)N[C@@H](Cc1ccc(O)cc1)C(=O)N[C@@H](CCCNC(=N)N)C(=O)NCC(N)=O)[C@@H](C)O [pThr^779] (Ac-KEATS[pT]FTNITYRG-NH2) is 4.09

pKi for CC[C@H](C)[C@H](NC(=O)[C@H](CC(N)=O)NC(=O)[C@@H](NC(=O)[C@H](Cc1ccccc1)NC(=O)[C@@H](NC(=O)[C@H](CO)NC(=O)[C@@H](NC(=O)[C@H](C)NC(=O)[C@H](CCC(=O)O)NC(=O)[C@H](CCCCN)NC(C)=O)[C@@H](C)O)[C@@H](C)O)[C@@H](C)O)C(=O)N[C@H](C(=O)N[C@@H](Cc1ccc(OP(=O)(O)O)cc1)C(=O)N[C@@H](CCCNC(=N)N)C(=O)NCC(N)=O)[C@@H](C)O [pTyr^785] (Ac-KEATSTFTNIT[pY]RG-NH2) is 4.08

---

So I've got a bunch of compounds here, and I need their pKi values.
measured target: UniProt:Q9H492
Square brackets hold non-standard residues; d marks the D form. Peptide text beside a SMILES is read from it. pY = N[C@@H](Cc1ccc(OP(=O)(O)O)cc1)C(=O)O; pT = C[C@@H](OP(=O)(O)O)[C@H](N)C(=O)O; pS = N[C@@H](COP(=O)(O)O)C(=O)O
Scale explanation: pKi corresponds to minus log10 of a concentration expressed in moles per litre.

pKi for CC[C@H](C)[C@H](NC(=O)[C@H](CC(N)=O)NC(=O)[C@@H](NC(=O)[C@H](Cc1ccccc1)NC(=O)[C@@H](NC(=O)[C@H](CO)NC(=O)[C@@H](NC(=O)[C@H](C)NC(=O)[C@H](CCC(=O)O)NC(=O)[C@H](CCCCN)NC(C)=O)[C@@H](C)O)[C@@H](C)O)[C@@H](C)O)C(=O)N[C@H](C(=O)N[C@@H](Cc1ccc(OP(=O)(O)O)cc1)C(=O)N[C@@H](CCCNC(=N)N)C(=O)NCC(N)=O)[C@@H](C)O [pTyr^785] (Ac-KEATSTFTNIT[pY]RG-NH2) is 4.42

pKi for CC[C@H](C)[C@H](NC(=O)[C@H](CC(N)=O)NC(=O)[C@@H](NC(=O)[C@H](Cc1ccccc1)NC(=O)[C@@H](NC(=O)[C@H](COP(=O)(O)O)NC(=O)[C@@H](NC(=O)[C@H](C)NC(=O)[C@H](CCC(=O)O)NC(=O)[C@H](CCCCN)NC(C)=O)[C@@H](C)O)[C@@H](C)O)[C@@H](C)O)C(=O)N[C@H](C(=O)N[C@@H](Cc1ccc(O)cc1)C(=O)N[C@@H](CCCNC(=N)N)C(=O)NCC(N)=O)[C@@H](C)O [pSer^778] (Ac-KEAT[pS]TFTNITYRG-NH2) is 4.53

pKi for CC[C@H](C)[C@H](NC(=O)[C@H](CC(N)=O)NC(=O)[C@@H](NC(=O)[C@H](Cc1ccccc1)NC(=O)[C@@H](NC(=O)[C@H](CO)NC(=O)[C@@H](NC(=O)[C@H](C)NC(=O)[C@H](CCC(=O)O)NC(=O)[C@H](CCCCN)NC(C)=O)[C@@H](C)O)[C@@H](C)OP(=O)(O)O)[C@@H](C)O)C(=O)N[C@H](C(=O)N[C@@H](Cc1ccc(OP(=O)(O)O)cc1)C(=O)N[C@@H](CCCNC(=N)N)C(=O)NCC(N)=O)[C@@H](C)O [pThr^779/pTyr^785] (Ac-KEATS[pT]FTNIT[pY]RG-NH2) is 5.07
